Recorded growth by entry
System: SW-620 colon
Experiment: NCI-60 one-dose screen, 48 h (100 = growth as untreated, 0 = no growth, -100 = all killed)
Details: 10 µM unless noted
About 83,000 compounds went through this panel and 20% of them were active in at least one assay; those are over-represented in the sample as a whole. Activity calls are given as the source filed them. Rule for the calls: active = growth percent below 10; inactive = the rest.

MOLECULE: O=C(O)c1ccc(OCc2ccccc2)cc1
RESULT: 107% (inactive)
//
MOLECULE: NC(=S)N/N=C/c1ccc(OC(=O)COc2ccccc2)cn1
RESULT: 49% (inactive)
//
MOLECULE: CCC12OC(COc3ccccc3)CN1CCN2c1ccccc1 (stereo not drawn)
RESULT: 103% [100 µM] (inactive)
//
MOLECULE: OCc1cccnc1
RESULT: 102% (inactive)
//
MOLECULE: CC1CCC(C(C)(C)[N+](C)(C)C)CC1 (stereo not drawn)
RESULT: 105% (inactive)

Exercise: Which growth value belongs to "Nc1nc(N)nc(N2CCCCC2)n1" ?
Solution: 106% (inactive)

Exercise: Now the same for C=COC(=O)CCOCC(CC)CCCC (stereo not drawn)
Solution: 105% (inactive)

Exercise: # iterate: "Cc1cc(C(=O)NN)c(C#N)c(=O)[nH]1"
Solution: 102% (inactive)

Exercise: Param item: CC(=O)C1C(=O)C(=O)N(c2ccc(Cl)c(Cl)c2)C1=O (stereo not drawn)
Solution: 108% (inactive)

Exercise: Please give the result for "CC1(C)CC(=O)C=C(N)C1" too.
Solution: 96% (inactive)

Exercise: Next entry: "NNC(=O)CCCCl"
Solution: 105% (inactive)

Exercise: Now this one: "C=C(C)COc1ccc(C(C)(C)C)cc1"
Solution: 101% (inactive)

Exercise: Same question for CN(C)c1ccc(O)c2c1CC1CC3C(N(C)C)C(=O)C(C(N)=O)=C(O)C3(O)C(=O)C1=C2O (stereo not drawn) please.
Solution: 47.8% (inactive)

====

System: SF-268 CNS
Test: NCI-60 one-dose screen, 48 h
Settings: 10 µM unless noted
This is part of a sample that, as a whole, favours compounds with a hit. Of some 83,000 tested, about 20% had one in any assay. The source made the active and inactive calls. How the source made its calls: active means growth percent below 10; inactive means the rest.
Select the matching outcome among true for active, false for inactive

Exercise: What did the test return for "COc1c(CNC(=O)CCl)cc2[nH]c(C)cc2c1CNC(=O)CCl" ?
Solution: false

Exercise: Can you check CC(C)(C)CC1(C)NC(=O)NC1=O (configuration not stated) next?
Solution: false

Exercise: Now the compound C=CCC(O)C=C (configuration not stated)
Solution: false

Exercise: Now consider NC(=S)c1c(N)n(C2OC(CO)C(O)C2O)c2ncnc(N)c12 (configuration not stated) and answer again.
Solution: true

Exercise: Here is the next compound: "N#C/C(=C\c1ccc2c(c1)OCO2)c1ccccc1"
Solution: false

Exercise: And for "CN1C(=O)NC(c2ccc(Cl)cc2)(c2ccc(Cl)cc2)C1=O" ?
Solution: false

Exercise: What do we get for "Nc1ncnc(Nc2ccccc2)n1" ?
Solution: false

====

Recorded growth by entry
System: NCI-H322M lung
Test: NCI-60 one-dose screen, 48 h (100 = growth as untreated, 0 = no growth, -100 = all killed)
Settings: 10 µM unless noted
This is part of a sample that, as a whole, favours compounds with a hit. Of some 83,000 tested, about 20% had one in any assay. Active and inactive are the calls of the source. The calls were made as follows: active = growth percent below 10; inactive = the rest.

Use these answered entries as a reference point.
COMPOUND: CC(=O)O[C@H]1CC[C@]2(C)C3=C(C(=O)C[C@H]2C1(C)C)[C@]1(C)CC[C@H]([C@H](C)CCC(=O)O)[C@@]1(C)CC3=O
SUBJECT_OF_TEST: NCI-H322M lung
growth: 105% (inactive)
--
COMPOUND: CCCCCCCCCCCCCCCCOc1ccccc1NC(=O)CC(C)=O
SUBJECT_OF_TEST: NCI-H322M lung
growth: 109% (inactive)
--
COMPOUND: O=Cc1c(O)c2ccccc2[nH]c1=O
SUBJECT_OF_TEST: NCI-H322M lung
growth: 112% (inactive)

Exercise: Which growth value is on record for "COc1ccc(C)cc1NC(=O)SC(C)C" ?
Solution: 104% [100 µM] (inactive)

Exercise: # repeat for "CN1C(=O)NC(c2ccc(Cl)cc2)(c2ccc(Cl)cc2)C1=O"
Solution: 119% (inactive)

Exercise: What about "CC(=O)N(C(C)=O)c1ccc(C)cc1" ?
Solution: 102% (inactive)

Exercise: Consider next the compound "CC(C)N(C(=O)c1ccccc1)C(C)C" in the same way.
Solution: 114% (inactive)

The values you see were collected from PubChem BioAssay (NCI).
